Molecular target: hFASN enzyme (full length) (Homo sapiens, UniProt P49327)
Construct: 10 μL hFASN enzyme (full length, 300 ng, purified in house); made in house
Sequence (P49327 whole entry): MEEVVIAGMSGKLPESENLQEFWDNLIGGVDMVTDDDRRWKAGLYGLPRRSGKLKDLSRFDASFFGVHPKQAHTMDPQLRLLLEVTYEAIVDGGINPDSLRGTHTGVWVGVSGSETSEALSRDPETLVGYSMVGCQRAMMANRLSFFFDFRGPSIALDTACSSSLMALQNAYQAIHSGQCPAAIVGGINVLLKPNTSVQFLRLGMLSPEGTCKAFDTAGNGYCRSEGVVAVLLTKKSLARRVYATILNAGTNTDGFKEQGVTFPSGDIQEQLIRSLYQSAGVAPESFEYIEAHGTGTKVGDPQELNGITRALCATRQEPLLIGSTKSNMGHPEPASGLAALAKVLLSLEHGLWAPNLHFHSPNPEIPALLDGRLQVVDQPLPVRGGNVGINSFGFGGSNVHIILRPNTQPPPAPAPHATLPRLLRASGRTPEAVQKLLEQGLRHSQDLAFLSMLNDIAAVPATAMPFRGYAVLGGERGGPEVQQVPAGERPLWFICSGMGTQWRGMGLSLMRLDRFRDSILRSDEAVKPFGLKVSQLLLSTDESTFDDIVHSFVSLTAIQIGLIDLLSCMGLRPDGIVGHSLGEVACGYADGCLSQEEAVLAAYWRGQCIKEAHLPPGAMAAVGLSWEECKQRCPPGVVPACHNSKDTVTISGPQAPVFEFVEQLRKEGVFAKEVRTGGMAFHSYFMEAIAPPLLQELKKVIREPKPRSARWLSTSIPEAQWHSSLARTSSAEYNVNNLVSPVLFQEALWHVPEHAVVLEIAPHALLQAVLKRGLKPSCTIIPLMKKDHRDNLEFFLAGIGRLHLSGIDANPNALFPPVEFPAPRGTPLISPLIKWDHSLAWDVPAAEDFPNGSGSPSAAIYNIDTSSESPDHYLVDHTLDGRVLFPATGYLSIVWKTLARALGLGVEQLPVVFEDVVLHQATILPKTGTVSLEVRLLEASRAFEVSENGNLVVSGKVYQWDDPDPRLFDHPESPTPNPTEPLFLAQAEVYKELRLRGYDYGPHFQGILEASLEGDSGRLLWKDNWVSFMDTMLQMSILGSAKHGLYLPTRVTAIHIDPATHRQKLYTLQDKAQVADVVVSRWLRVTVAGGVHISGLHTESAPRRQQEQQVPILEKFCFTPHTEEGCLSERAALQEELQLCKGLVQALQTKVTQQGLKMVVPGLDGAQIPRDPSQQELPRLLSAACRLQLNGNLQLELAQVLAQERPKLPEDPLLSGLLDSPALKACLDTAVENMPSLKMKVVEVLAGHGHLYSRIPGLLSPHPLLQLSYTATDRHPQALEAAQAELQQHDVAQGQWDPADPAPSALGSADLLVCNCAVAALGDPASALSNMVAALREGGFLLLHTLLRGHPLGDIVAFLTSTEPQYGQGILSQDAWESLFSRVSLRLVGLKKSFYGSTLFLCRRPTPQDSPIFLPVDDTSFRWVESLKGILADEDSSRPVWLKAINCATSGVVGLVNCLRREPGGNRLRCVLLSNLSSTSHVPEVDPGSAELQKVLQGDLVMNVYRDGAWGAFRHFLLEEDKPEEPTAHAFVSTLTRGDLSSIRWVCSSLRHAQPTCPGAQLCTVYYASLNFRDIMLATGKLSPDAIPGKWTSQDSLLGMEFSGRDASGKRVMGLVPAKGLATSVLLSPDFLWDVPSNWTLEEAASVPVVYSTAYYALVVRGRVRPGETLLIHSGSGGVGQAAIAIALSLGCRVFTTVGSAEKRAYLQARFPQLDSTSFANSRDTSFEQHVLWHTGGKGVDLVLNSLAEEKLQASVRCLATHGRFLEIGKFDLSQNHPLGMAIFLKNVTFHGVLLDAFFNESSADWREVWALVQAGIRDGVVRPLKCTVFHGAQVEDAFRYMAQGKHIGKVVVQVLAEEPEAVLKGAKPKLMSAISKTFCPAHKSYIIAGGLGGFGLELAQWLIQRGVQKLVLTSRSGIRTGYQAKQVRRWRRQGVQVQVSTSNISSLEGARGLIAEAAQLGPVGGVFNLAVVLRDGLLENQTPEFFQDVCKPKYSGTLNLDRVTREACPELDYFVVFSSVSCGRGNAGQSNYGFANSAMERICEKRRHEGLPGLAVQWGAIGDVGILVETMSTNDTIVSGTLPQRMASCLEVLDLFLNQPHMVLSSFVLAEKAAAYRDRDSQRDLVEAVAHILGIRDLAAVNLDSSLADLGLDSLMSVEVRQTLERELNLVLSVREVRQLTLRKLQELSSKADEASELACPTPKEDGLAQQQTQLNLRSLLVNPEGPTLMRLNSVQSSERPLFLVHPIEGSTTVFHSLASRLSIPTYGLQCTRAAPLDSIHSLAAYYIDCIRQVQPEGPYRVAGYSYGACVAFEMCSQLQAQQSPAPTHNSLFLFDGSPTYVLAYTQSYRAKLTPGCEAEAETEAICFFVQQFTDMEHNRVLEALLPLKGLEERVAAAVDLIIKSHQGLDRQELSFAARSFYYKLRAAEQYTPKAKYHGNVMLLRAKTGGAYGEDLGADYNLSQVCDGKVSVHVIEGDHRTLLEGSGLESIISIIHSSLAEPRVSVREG
Test: Fatty Acid Synthase (FASN) inhibition scintillation proximity assay
Type: biochemical
Conditions: read-out: Human FASN pIC50 (converted)
MEASURED PROPERTY: IC50 (nM)

COC(=O)N1CCC2(CC1)N=C(c1ccc(-c3ccc4[nH]ccc4c3)cc1)N(C[C@@H]1CCN(C(=O)C3CC3)C1)C2=O 43.7

1 = Cc1cc(C2=NC3(CC3)C(=O)N2C[C@@H]2CCN(C(=O)C3CC3)C2)ccc1-c1ccc2[nH]ncc2c1
2 = O=C(C1CC1)N1CC[C@@H](CN2C(=O)C3(CC3)N=C2c2ccc(-c3ccc4cnc(F)cc4c3)cc2)C1
input: In terms of reported IC50, does 1 or 2 have the smaller number? Kindly state the label of the option you pick.
output: 2

====

Target: hFASN enzyme (full length) (Homo sapiens)
Construct: 10 μL hFASN enzyme (full length, 300 ng, purified in house); made in house
Assay: Fatty Acid Synthase (FASN) inhibition scintillation proximity assay
Assay type: biochemical
Conditions: read-out: Human FASN % inhibition @ 10 μM, 10 μM test compound
Protocol: In this assay, inhibition of FASN activity is measured using ^3H-acetyl-CoA and malonyl-CoA as substrates. ^3H-Acetyl CoA is converted to ^3H-palmitate through a series of reactions by the FASN protein, which contains 7 functional domains and carries out 7 enzymatic reactions to ultimately produce ^3H-palmitate. The assay principle is based upon the fact that ^3H-acetyl-CoA is hydrophilic and the end product, ^3H-palmitate is hydrophobic. […]
MEASURED PROPERTY: inhibition at 10 µM (%)

COMPOUND	inhibition at 10 µM / %
O=C(C1CC1)N1CC[C@@H](CN2C(=O)C3(CC3)N=C2c2ccc(-c3ccc4[nH]ccc4c3)cc2)C1 [compound 31]	107
CS(=O)(=O)N1CCC2(CC1)N=C(c1ccc(-c3ccc4[nH]ccc4c3)cc1)N(C[C@@H]1CCN(C(=O)C3CC3)C1)C2=O [compound 745]	104
O=C(C1CC1)N1CCC(CN2C(=O)C3(CC3)N=C2c2ccc(-c3cccc(O)c3)cc2)CC1 [compound 108]	83.8
Cc1oc2ccc(-c3ccc(C4=NC5(CC5)C(=O)N4C[C@@H]4CCN(C(=O)C5CC5)C4)cc3F)cc2c1C [compound 399]	99
O=C(C1CC1)N1CC[C@@H](CN2C(=O)C3(CC3)N=C2c2ccc(-c3ccc(F)c(Cl)c3)cc2)C1 [compound 209]	108
O=C(C1CC1)N1CCC2(CC1)N=C(c1ccc(-c3ccc4occc4c3)cc1)N(C[C@@H]1CCN(C(=O)C3CC3)C1)C2=O [compound 152]	123
O=C(C1CC1)N1CC[C@@H](CN2C(=O)C3(CCOCC3)N=C2c2ccc(-c3ccc4occc4c3)cc2)C1 [compound 667]	97

====

Target: hFASN enzyme (full length) (Homo sapiens, UniProt P49327)
Construct: 10 μL hFASN enzyme (full length, 300 ng, purified in house); made in house
Assay: Fatty Acid Synthase (FASN) inhibition scintillation proximity assay
Assay type: biochemical
Settings: read-out: Human FASN % inhibition @ 10 μM, 10 μM test compound
MEASURED PROPERTY: inhibition at 10 µM (%)

Please review the entries below; each comes with its answer.
O=C([C@H]1CCCO1)N1CC(CN2C(=O)C3(CCOCC3)N=C2c2ccc(-c3ccc4cccnc4c3)cc2)C1 94
COC(=O)N1CC2(C1)N=C(c1ccc(-c3ccc4c(cnn4C)c3)cc1)N(C[C@@H]1CCN(C(=O)N3CCCC3)C1)C2=O 46
O=C(C1CC1)N1CC[C@@H](CN2C(=O)C3(CCOCC3)N=C2c2ccc(-c3ccc4cccnc4c3)cc2)C1 95

a = Cn1ncc2cc(-c3ccc(C4=NC5(CC5)C(=O)N4CC4CN(C(=O)C5(F)CC5)C4)c(F)c3)ccc21
b = COC(=O)N1CC2(C1)N=C(c1ccc(-c3ccc(-c4cnn(C)c4)cc3)cc1)N(C[C@@H]1CCN(C(=O)N3CCCC3)C1)C2=O
input: Determine, for a and b , which has the greater value of inhibition at 10 µM. Give the label of your selection.
output: a

All values here come from patent US10077261B2.
